These entries and their values trace back to the MegaScale stability set (Tsuboyama et al. 2023).

B1: 6NMW (parent)
chain: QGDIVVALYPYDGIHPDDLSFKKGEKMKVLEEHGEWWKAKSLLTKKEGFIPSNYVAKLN

variants of: B1; assay: folding stability dG (cDNA display proteolysis); higher = more stable; conditions: PBS, room temperature
Entries are grouped by folding stability dG into these classes: low class = under 2 kcal/mol, middle class = from 2 kcal/mol up to 4 kcal/mol, high class = 4 kcal/mol and over

variantdescriptor=K45P class="low class"
variantdescriptor=H15N class="middle class"
variantdescriptor=D3H class="high class"
variantdescriptor=D17N class="middle class"
variantdescriptor=Y11A class="low class"
variantdescriptor=D3I class="high class"
variantdescriptor=P51N class="middle class"
variantdescriptor=S41C class="low class"
variantdescriptor=W37K class="middle class"
variantdescriptor=W37P class="low class"
variantdescriptor=E32A class="high class"
variantdescriptor=N53C class="high class"
variantdescriptor=D18N class="middle class"
variantdescriptor=Y54L class="middle class"
variantdescriptor=G34R class="low class"
variantdescriptor=I14H class="middle class"
variantdescriptor=L42H class="low class"
variantdescriptor=P51F class="low class"
variantdescriptor=V55P class="low class"
variantdescriptor=A7G class="middle class"
variantdescriptor=E47Q class="middle class"
variantdescriptor=D18E class="high class"
variantdescriptor=A39F class="low class"
variantdescriptor=E47R class="middle class"
